- Tested on: Sam68 (KHDRBS1)
- method description: compounds binding KHDRBS1 protein – biochemical, small-molecule microarray, 635 nm fluorescence, primary screen (AID 1125);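 further: score merges 667 nm channel intensity with signal to noise over triplicate slides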
- test settings: higher = more signal
reported endpoint: composite z-score

> print(dat)
                            compound.smiles  reported.endpoint  observed.result
1  O=C(NCCN1CCOCC1)[C@@H]1c2ccccc2C(=O)N(Cc2ccccc2Cl)[C@H]1c1ccc(CO)cc1  composite z-score           -0.721
2  CCCC[C@@H](O)C1=C(COC)C[C@H]2C(=O)N(Cc3ccccc3)C(=O)[C@H]2[C@H]1CO  composite z-score            0.651
3  CC[C@@H]1C=C(C(=O)O)[C@H](c2ccc(C#N)cc2)N1S(=O)(=O)c1ccc(C)cc1  composite z-score             1.09
4  CC(C)NC(=O)[C@@]1(C)c2ccccc2C(=O)N(Cc2ccc(OC(F)(F)F)cc2)[C@H]1c1ccc(CO)cc1  composite z-score            0.844

----------
- method description: compound effects on lung adenocarcinoma cell viability – A549, calcein-AM fluorescence, 48 h, basal, profiling panel (AID 1162); further: test concentration not given here
- test settings: higher = more signal
reported endpoint: z-score

> print(dat)
                                   compound  observed.result
1  CCCCN1CC=CC23O[C@@H]4/C=C\CCCOC(=O)C4[C@H]2C(=O)N(CCO)[C@@H]3C1=O (some centres undefined)           -0.129
2  CCCC#C[Si](O[C@H](CC)c1cn([C@H](C)c2ccccc2)nn1)(C(C)C)C(C)C             1.18
3  NCCCCCNC(=O)[C@@H]1C[C@@H]2C(=O)N[C@@H](CCCCN)C(=O)N2[C@@H]1c1ccc(O)cc1          -0.0858
4  COc1cc(OC)c(C(O)C2C=CC3C(=O)N(Cc4ccccc4)C(=O)C3N2n2cnnc2)cc1Br (centres undefined)           -0.407

----------
- method description: JC-1 mitochondrial signal, unstimulated adipocytes – cell-based, JC-1 fluorescence, 3T3-L1 adipocytes, 24 h, 100 nL compound, profiling panel (AID 1168); further: test concentration not given here
- test settings: JC-1 mitochondrial fluorescence, higher = more signal, called active from +8 up or from −8 down
reported endpoint: z-score

> print(dat)
                                   compound  reported.endpoint  observed.result
1  CCC1=C2CN(Cc3ccccc3)[C@@H](C(=O)Cc3ccccc3)C2C=CCC1 (stereo partly drawn)            z-score            0.152
2  C=CCOC(=O)[C@@]1(Cc2ccccc2)C[C@H]2CO[C@H](c3ccc(OC)cc3)N2C1=O            z-score            0.437
3  O=C1C2C=CC(C(O)c3ccco3)N(Nc3ccccc3F)C2C(=O)N1c1ccccc1 (stereo not drawn)            z-score           -0.346
4  CCCNC(=O)[C@@]1(Sc2ccc(C)cc2)CC(=O)N(C2Cc3ccccc3C2)[C@@H]1c1ccc(CO)cc1I            z-score          -0.0979
5  COc1ccc([Si](C)(C)[C@@H]2[C@@H](CC(=O)N3CCC[C@H]3CO)O[C@]3(C(=O)N(Cc4cccc(N5C(=O)COc6ccccc65)c4)c4ccccc43)[C@H]2C)cc1            z-score            -1.01
6  CO[C@H]1O[C@H](CO)[C@@H](OC(=O)Nc2ccc3c(c2)OCO3)[C@H](OC(=O)Nc2ccc3c(c2)OCO3)[C@@H]1OC(=O)Nc1ccc2c(c1)OCO2            z-score            -0.13
7  [N-]=[N+]=Nc1ccccc1C[C@]1(C(=O)NCCN2CCOCC2)COC(c2ccc(OCCCO)cc2)=N1            z-score            0.959
8  CCOC(=O)C[C@H]1[C@H](OC(=O)c2ccccc2-c2ccccc2)[C@@H](NC(=O)c2ccc3ccccc3c2)c2cc(OCCCO)ccc2N1C(=O)c1ccccc1            z-score            0.633

----------
A collection of compounds and their measured composite z-score
- target: Calmodulin-1 (Homo sapiens) (UniProt P0DP23)
- method description: small molecules binding calmodulin-1 with EGTA – biochemical, small-molecule microarray, Cy5-labelled CALM1, profiling panel (AID 1111);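 further: labelled calmodulin applied in Tris saline Tween buffer holding calcium plus EGTA and DTT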
- test settings: Cy5-CALM1 binding fluorescence, higher = more signal
reported endpoint: composite z-score

compound	observed result
[N-]=[N+]=NCc1ccccc1[C@H]1OC(c2ccc(OCCCO)cc2)=N[C@@]1(Cc1ccccc1N=[N+]=[N-])C(=O)NCC(O)CO (stereo partly drawn)	1.33
COCCOC(=O)N1C(=O)[C@@]2(c3cc(C#CCCO)ccc31)[C@H](c1ccc(OCCO)cc1)N1[C@H](c3ccccc3)[C@H](c3ccccc3)OC(=O)[C@H]1[C@@H]2C(=O)Nc1nc2ccccc2s1	0.751
CC(C)[Si](C#C[Si](C(C)C)(C(C)C)C(C)C)(O[C@H](c1ccccc1)c1cn(Cc2ccccc2)nn1)C(C)C	0.192
COC(=O)C1(CC(C)C)C=C2C(=C(c3ccccc3)C(=O)C2C)CN1 (stereo not drawn)	-0.0555
CCCCN1CC=CC23O[C@@H]4/C=C\CCC(C)OC(=O)C4[C@H]2C(=O)N(CCCO)[C@@H]3C1=O (stereo partly drawn)	-0.0083
NC(=O)NCC#Cc1ccc2c(c1)[C@]1(C(=O)N2)[C@H](c2ccccc2OCCO)N2[C@H](c3ccccc3)[C@H](c3ccccc3)OC(=O)[C@H]2[C@@H]1C(=O)NC[C@H](O)c1ccccc1	-0.157
O=C1O[C@@H](c2ccccc2)[C@@H](c2ccccc2)N2[C@@H](c3ccc(OCCO)cc3)[C@]3(C(=O)Nc4ccc(C#CC5=CCCCC5)cc43)[C@@H](C(=O)NC[C@H](O)c3ccccc3)[C@H]12	1.25
C#CCN(Cc1ccccc1Br)[C@H](/C=C/c1ccccc1)[C@@H](O)Cc1ccccc1	-1.03
COc1ccccc1CN1C(=O)c2ccccc2[C@](Cc2ccccc2I)(C(=O)O)[C@@H]1c1ccc(CO)cc1	1.36
CN1C(=O)C2C=CC(C(O)c3cccn3C)N(Nc3ccc([N+](=O)[O-])cc3[N+](=O)[O-])C2C1=O (stereo not drawn)	1.08
C=CCNC(=O)[C@@H]1[C@H]2C(=O)O[C@H](c3ccccc3)[C@H](c3ccccc3)N2[C@H](c2ccc(OCCO)cc2)[C@@]12C(=O)N(C(=O)OCCOC)c1ccc(C#Cc3ccc(OC)cc3)cc12	1.6
C=CCC(OC(C)=O)[C@@H]1[C@@H](N(Cc2cccc3ccccc23)C(=O)Cc2ccc(OC)cc2)c2cc(OCCCO)ccc2N1C(=O)c1ccc(-c2ccccc2)cc1 (stereo partly drawn)	-0.228
Cc1ccc(NN2C(C(O)c3c(F)cccc3Cl)C=CC3C(=O)N(C4CCCCC4)C(=O)C32)cc1 (stereo not drawn)	1.96

----------
A collection of compounds and their measured composite z-score
- System: Human papillomavirus type 1a E7 protein (residues 1-88)
- method description: HPV1a E7 small-molecule binders, primary screen, biochemical, small-molecule microarray, residues 1-88, 635 nm (AID 1129)
- test settings: small-molecule microarray binding, fluorescence 635 nm; higher = more signal
reported endpoint: composite z-score

compound	observed result
O=C1CS(=O)(=O)C(c2cccc([N+](=O)[O-])c2)N1c1ccccc1 (stereo not drawn)	1.16
CCCCCN1CC=CC23O[C@@H]4/C=C\CCCOC(=O)C4[C@H]2C(=O)N(C(C)CO)[C@@H]3C1=O (stereo partly drawn)	-0.402
CCOC(=O)C1=CC[C@@H](c2ccccc2)N(S(=O)(=O)c2ccc(C)cc2)[C@H]1c1ccccc1	1.17
CCOC(=O)C1=CC[C@@H](c2ccccc2F)N(S(=O)(=O)c2ccc(C)cc2)[C@H]1c1ccccc1	1.07
CCCCN1CC=CC23O[C@@H]4/C=C\CCC(C)OC(=O)C4[C@H]2C(=O)N(CCCO)[C@@H]3C1=O (stereo partly drawn)	-0.708
COCCOC(=O)N1C(=O)[C@@]2(c3cc(C#CC4(O)CCCCCC4)ccc31)[C@H](C(=O)Nc1nc3ccccc3s1)[C@H]1C(=O)O[C@H](c3ccccc3)[C@H](c3ccccc3)N1[C@@H]2c1ccc(O)cc1	1.24
COc1ccc([Si](C)(C)[C@@H]2[C@@H](CCO)O[C@]3(C(=O)N(Cc4cccc(NC(=O)[C@H](C)O)c4)c4ccccc43)[C@H]2C)cc1	1.2
COc1cc(C(O)C2C=CC3C(=O)N(C)C(=O)C3N2Nc2ccccc2)cc(OC)c1OC (stereo not drawn)	1.23
CN(C)CCCCCCNC(=O)[C@@H]1C[C@@H]2C(=O)N3CCC[C@H]3C(=O)N2[C@@H]1c1cccc(OCCO)c1	1.23
COc1ccc(C#Cc2ccc3c(c2)[C@]2(C(=O)N3)[C@H](c3ccc(OCCO)cc3)N3[C@H](c4ccccc4)[C@H](c4ccccc4)OC(=O)[C@H]3[C@@H]2C(=O)NC[C@H](O)c2ccccc2)cc1	1.23
CCCCC=C[C@@H](NC(=O)OCc1ccccc1Cl)c1ccccc1	1.25
C=CCN1C(=O)[C@]2(CCC(=O)OC(C)(C)C)N=C(c3ccc(OCCCO)cc3)O[C@@H]2c2ccccc21	0.944
CCCCCN1CC=CC23O[C@@H]4/C=C\CCC(C)OC(=O)C4[C@H]2C(=O)N(C(CO)C(C)C)[C@@H]3C1=O (stereo partly drawn)	-0.46
NC(=O)NCC#Cc1ccc2c(c1)[C@]1(C(=O)N2)[C@H](C(=O)N2CCN(c3ncccn3)CC2)[C@H]2C(=O)O[C@H](c3ccccc3)[C@H](c3ccccc3)N2[C@@H]1c1ccc(O)cc1	1.14
COc1ccc([Si](C)(C)[C@@H]2[C@@H](CC(=O)N(CCO)Cc3ccccc3)O[C@]3(C(=O)N(Cc4cccc(N5CCCCC5=O)c4)c4ccccc43)[C@H]2C)cc1	0.869
C=C[C@@H](CO)N(Cc1ccc(OC)cc1)S(=O)(=O)c1ccc(Br)cc1	0.687
CCOC(=O)C1=C[C@@H](C(C)C)N(S(=O)(=O)c2ccc(C)cc2)[C@H]1c1ccc(C(F)(F)F)cc1	1.22
COC(=O)C1(CC(C)C)C=C2C(=C(c3ccccc3)C(=O)C2C)CN1 (stereo not drawn)	0.166
